src = ChEMBL document CHEMBL1145055

Test system Cathepsin B (Homo sapiens, UniProt P07858), pIC50 listed for each of the molecules.
pIC50: −log10 of the molar value.
Experimental readout: pIC50

>>> result("CN1CCN(c2ccc(-c3cccc(CC(=O)NCC#N)c3)cc2)CC1")
"< 5.00"
>>> result("CC(C)CC(C(=O)N(CC#N)OC(=O)C(F)(F)F)c1cccc(-c2ccncc2)c1 (stereo not drawn)")
"< 5.00"
>>> result("CC(C)CC(C(=O)NCC#N)c1cccc(-c2ccc3cc[nH]c3c2)c1 (stereo not drawn)")
"< 5.00"

----------
# Measurement target: UniProt:P07711
# Sequence (P07711 whole entry): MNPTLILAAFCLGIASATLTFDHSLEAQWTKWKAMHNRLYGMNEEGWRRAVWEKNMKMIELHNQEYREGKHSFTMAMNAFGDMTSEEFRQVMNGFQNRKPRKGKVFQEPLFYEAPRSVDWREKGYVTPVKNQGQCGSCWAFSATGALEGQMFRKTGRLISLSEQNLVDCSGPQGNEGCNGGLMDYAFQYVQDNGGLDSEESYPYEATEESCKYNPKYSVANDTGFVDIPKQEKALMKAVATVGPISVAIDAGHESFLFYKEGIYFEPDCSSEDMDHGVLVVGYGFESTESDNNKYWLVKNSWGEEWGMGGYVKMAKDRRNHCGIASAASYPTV
Experimental readout: IC50

>>> result("CC[C@H](C)CC(C(=O)NCC#N)c1cccc(-c2ccc(N3CCN(C)CC3)cc2)c1 (stereo partly drawn)")
"> 10 µM"
>>> result("CN1CCN(c2ccc(-c3cccc(C(CC4CCC4)C(=O)NCC#N)c3)cc2)CC1 (stereo not drawn)")
"> 10 µM"
>>> result("CC(C)CC(C(=O)NCC#N)c1cccc(-c2ccc(C(N)=O)cc2)c1 (stereo not drawn)")
"> 10 µM"
